test system: MRC-5 cells; test: Cellular toxicity to MRC-5 cells (XTT); conditions: 6 days, duplicate data points
QUANTITY KIND: TC50 (toxic concentration that killed 50% of MRC-5 cells) (µM)
Response body: numeric value in µM, unit text excluded.

Would you please look over these solved cases?
CCCCCCCCCCCCCC(=O)OC[C@@H]1O[C@H](n2ccc(N)nc2=O)CS1 : 47.5
CCSCCCCCCCCCCCC(=O)OC[C@H]1O[C@@H](n2cc(C)c(=O)[nH]c2=O)C[C@@H]1F : 45.4

Ask: Specify reported TC50 (toxic concentration that killed 50% of MRC-5 cells) for the compound shown: `C#C[C@]1(CO)O[C@@H](n2cnc3c(N)nc(F)nc32)C[C@@H]1O`
Result: 55.3

Ask: Specify reported TC50 (toxic concentration that killed 50% of MRC-5 cells) for the compound shown: `CCCCCCCCCCCCCC(=O)OC[C@@H]1O[C@H](n2cc(F)c(N)nc2=O)CS1`
Result: 87.5

====

In this section we review reported EC50 values for a set of compounds.
tested on: HCoV-229E; experiment: Anti-coronavirus cytoprotection assay (XTT, reduction of viral cytopathic effect) in MRC-5 cells; conditions: Human coronavirus 229E, MRC5, 144 h, read-out: EC50 (effective concentration that reduced 50% of viral cytopathic effect), HCoV-229E in MRC-5 cells, 6 days, triplicate data points

Would you please look over these solved cases?
Cc1cn([C@H]2C[C@H](F)[C@@H](CO)O2)c(=O)[nH]c1=O : > 100 µM
CCCCCCCCCCCCCC(=O)OC[C@@H]1O[C@H](n2cc(F)c(N)nc2=O)CS1 : 72.8 µM
CCSCCCCCCCCCCCC(=O)OC[C@H]1O[C@@H](n2cc(C)c(=O)[nH]c2=O)C[C@@H]1F : > 45.4 µM
C[C@H](Cn1cnc2c(N)ncnc21)OCP(=O)(O)O : > 100 µM
Nc1ccn([C@H]2CS[C@@H](CO)O2)c(=O)n1 : > 100 µM

Then this compound:
Ask: Specify reported EC50 for the compound shown: `Nc1nc(=O)n([C@H]2CS[C@@H](CO)O2)cc1F`
Result: > 100 µM

====

tested on: MRC-5 cells; test: Cellular toxicity to MRC-5 cells (XTT); settings: 6 days, duplicate data points
In this section we review reported TC50 (toxic concentration that killed 50% of MRC-5 cells) values for a set of compounds.

Would you please look over these solved cases?
Nc1nc(=O)n([C@H]2CS[C@@H](CO)O2)cc1F : > 100 µM
Cc1cn([C@H]2C[C@H](F)[C@@H](CO)O2)c(=O)[nH]c1=O : > 100 µM

Ask: Specify reported TC50 (toxic concentration that killed 50% of MRC-5 cells) for the compound shown: `Nc1ccn([C@H]2CS[C@@H](CO)O2)c(=O)n1`
Result: > 100 µM

Ask: Specify reported TC50 (toxic concentration that killed 50% of MRC-5 cells) for the compound shown: `C[C@H](Cn1cnc2c(N)ncnc21)OCP(=O)(O)O`
Result: > 100 µM

Ask: Specify reported TC50 (toxic concentration that killed 50% of MRC-5 cells) for the compound shown: `CCC(CC)COC(=O)[C@H](C)N[P@](=O)(OC[C@H]1O[C@@](C#N)(c2ccc3c(N)ncnn23)[C@H](O)[C@@H]1O)Oc1ccccc1`
Result: > 2.0 µM
